Molecular target: hERG potassium ion channel (Homo sapiens)
Construct: expressed in transfected cells
Sequence (Q12809 whole entry): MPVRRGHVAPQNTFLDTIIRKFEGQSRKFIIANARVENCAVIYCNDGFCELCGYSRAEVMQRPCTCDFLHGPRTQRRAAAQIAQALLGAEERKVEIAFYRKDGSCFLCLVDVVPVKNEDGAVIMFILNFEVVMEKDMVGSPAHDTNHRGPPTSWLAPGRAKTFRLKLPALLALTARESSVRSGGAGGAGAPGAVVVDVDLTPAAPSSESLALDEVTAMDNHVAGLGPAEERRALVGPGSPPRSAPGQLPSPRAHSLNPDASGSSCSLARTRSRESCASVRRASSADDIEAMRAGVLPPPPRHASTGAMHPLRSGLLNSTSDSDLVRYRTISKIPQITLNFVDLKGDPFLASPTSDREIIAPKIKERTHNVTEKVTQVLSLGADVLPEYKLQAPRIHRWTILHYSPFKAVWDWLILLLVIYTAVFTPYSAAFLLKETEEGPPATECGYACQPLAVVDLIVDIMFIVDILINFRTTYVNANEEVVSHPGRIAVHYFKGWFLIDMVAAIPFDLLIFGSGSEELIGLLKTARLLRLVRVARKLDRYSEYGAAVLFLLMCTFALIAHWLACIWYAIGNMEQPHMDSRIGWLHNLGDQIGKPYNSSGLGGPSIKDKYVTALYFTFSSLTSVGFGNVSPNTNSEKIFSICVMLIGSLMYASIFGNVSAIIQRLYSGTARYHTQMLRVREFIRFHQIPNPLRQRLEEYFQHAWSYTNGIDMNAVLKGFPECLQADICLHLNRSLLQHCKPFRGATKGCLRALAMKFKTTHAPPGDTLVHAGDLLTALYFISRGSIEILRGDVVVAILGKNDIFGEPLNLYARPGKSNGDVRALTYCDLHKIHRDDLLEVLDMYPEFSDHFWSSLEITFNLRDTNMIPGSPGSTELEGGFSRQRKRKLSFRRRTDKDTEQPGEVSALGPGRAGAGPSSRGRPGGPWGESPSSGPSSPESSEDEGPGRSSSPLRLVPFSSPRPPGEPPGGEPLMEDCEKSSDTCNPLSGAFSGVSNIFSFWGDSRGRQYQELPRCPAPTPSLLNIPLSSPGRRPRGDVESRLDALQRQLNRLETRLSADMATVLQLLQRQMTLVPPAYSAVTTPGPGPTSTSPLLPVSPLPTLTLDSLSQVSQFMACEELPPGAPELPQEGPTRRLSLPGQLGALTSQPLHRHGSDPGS
Test: Effect on hERG potassium ion channel, manual whole cell patch-clamp in CHO cells
Format: cell-based
Details: hamster, inhibitory effect on hERG potassium channel current
outcome measure: IC50

Task: Name the value of IC50 reported for Cn1nc(C2CCC(=O)NC2=O)c2cccc(C#CCO[C@@H]3CCN(C[C@H]4CC[C@H](n5cc(NC(=O)c6cnn7ccc(N8CCO[C@H](CO)C8)nc67)c(C(F)F)n5)CC4)C[C@@H]3F)c21 (single isomer, unassigned) [Chiral isomer 1 of compound 20] when tested on hERG potassium ion channel (Homo sapiens).
Result: > 40 µM
